molecular target: PDE4A1 (Homo sapiens, UniProt P27815)
Sequence (P27815 1-647 isoform P27815-4): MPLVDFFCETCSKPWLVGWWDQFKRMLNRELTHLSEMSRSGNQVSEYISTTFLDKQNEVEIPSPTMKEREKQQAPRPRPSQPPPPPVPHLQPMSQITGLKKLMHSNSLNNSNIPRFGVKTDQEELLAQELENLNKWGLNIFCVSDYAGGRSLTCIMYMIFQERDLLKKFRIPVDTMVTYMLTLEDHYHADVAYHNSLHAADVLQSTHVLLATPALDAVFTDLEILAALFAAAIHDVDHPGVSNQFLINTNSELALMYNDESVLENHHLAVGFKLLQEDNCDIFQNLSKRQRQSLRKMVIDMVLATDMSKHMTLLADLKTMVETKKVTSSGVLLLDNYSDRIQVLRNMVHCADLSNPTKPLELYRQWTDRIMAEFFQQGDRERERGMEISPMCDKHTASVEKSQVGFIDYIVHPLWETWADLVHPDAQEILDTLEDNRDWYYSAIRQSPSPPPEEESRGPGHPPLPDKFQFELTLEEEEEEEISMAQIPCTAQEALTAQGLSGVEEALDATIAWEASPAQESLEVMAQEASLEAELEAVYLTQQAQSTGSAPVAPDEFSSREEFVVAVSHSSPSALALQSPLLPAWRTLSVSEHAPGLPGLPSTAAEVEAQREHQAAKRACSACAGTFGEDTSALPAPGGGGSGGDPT
reported_property: IC50 (nM)
Numbers only, in nM.

The molecule identified as O=C(Cc1c(Cl)c[n+]([O-])cc1Cl)c1ccc(OC(F)F)c2c1OC1(CCS(=O)(=O)CC1)O2 [Compound (I)] registered its IC50 at 16.4

###

molecular target: PDE4B3 (Homo sapiens)
Sequence (Q07343 1-721 isoform Q07343-3): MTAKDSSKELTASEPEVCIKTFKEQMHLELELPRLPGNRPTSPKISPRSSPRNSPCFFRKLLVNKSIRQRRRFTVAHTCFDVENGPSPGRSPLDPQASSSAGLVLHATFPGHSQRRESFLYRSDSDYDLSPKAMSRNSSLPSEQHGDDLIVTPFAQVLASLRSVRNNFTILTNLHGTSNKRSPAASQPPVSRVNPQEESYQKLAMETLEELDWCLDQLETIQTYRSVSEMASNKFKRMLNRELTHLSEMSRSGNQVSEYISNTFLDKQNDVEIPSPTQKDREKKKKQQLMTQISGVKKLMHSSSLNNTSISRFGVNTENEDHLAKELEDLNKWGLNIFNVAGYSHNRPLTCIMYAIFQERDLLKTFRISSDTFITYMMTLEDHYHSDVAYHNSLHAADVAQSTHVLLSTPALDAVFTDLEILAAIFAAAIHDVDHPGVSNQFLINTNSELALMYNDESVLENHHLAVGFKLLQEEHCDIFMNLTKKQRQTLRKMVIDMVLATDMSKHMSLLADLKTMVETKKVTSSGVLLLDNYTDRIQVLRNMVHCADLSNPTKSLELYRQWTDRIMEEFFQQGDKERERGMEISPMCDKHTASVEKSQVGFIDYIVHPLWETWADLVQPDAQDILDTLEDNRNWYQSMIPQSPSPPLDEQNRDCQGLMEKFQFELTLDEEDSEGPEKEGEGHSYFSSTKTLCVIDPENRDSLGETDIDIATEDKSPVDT
reported_property: pIC50
Numbers only, as −log10 of the molar value.

The compound identified as O=C(Cc1c(Cl)c[n+]([O-])cc1Cl)c1ccc(OC(F)F)c2c1OC1(CCS(=O)(=O)CC1)O2 [Compound (I)] registered its pIC50 at 8.53

###

target: PDE4D3 (Homo sapiens)
Sequence (Q08499 1-673 isoform Q08499-2): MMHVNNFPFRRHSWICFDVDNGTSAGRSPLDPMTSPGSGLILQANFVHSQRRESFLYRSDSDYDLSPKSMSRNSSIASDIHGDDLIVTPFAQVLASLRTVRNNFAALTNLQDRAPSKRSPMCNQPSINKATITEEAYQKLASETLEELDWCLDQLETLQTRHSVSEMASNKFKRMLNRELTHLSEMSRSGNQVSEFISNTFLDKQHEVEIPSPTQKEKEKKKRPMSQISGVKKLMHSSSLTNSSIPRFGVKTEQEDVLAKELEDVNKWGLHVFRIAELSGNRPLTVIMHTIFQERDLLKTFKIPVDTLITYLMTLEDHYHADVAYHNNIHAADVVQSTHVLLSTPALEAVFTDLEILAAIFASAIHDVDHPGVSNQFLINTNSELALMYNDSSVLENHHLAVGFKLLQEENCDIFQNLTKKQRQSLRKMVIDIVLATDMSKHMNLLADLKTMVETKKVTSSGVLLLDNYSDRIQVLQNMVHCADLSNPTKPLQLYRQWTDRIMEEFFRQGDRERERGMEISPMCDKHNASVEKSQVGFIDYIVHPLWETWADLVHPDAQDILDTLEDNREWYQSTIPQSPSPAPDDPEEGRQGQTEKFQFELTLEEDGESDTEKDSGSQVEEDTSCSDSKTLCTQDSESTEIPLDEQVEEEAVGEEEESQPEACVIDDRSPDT
reported_property: IC50 (nM)
Give bare numbers, in nM.

The compound identified as O=C(Cc1c(Cl)c[n+]([O-])cc1Cl)c1ccc(OC(F)F)c2c1OC1(CCS(=O)(=O)CC1)O2 registered its IC50 at 1.75

###

target: PDE4D1 (Homo sapiens, UniProt Q08499)
Sequence (Q08499 1-584 isoform Q08499-4): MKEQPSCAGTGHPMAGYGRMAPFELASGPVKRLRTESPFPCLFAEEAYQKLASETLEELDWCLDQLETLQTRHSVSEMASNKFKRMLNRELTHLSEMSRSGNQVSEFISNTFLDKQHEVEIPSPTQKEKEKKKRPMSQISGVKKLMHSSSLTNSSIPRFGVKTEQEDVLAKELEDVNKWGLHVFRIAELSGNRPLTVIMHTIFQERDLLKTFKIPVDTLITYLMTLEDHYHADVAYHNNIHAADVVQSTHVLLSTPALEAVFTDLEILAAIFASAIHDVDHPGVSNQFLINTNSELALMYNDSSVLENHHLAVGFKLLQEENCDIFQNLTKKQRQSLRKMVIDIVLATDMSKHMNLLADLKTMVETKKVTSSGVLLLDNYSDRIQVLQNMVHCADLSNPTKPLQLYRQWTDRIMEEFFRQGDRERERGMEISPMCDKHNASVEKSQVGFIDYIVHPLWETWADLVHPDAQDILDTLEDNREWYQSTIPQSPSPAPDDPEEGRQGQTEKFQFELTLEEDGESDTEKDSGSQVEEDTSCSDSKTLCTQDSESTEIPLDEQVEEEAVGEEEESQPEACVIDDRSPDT
reported_property: pIC50
Numbers only, as −log10 of the molar value.

Entry O=C(Cc1c(Cl)c[n+]([O-])cc1Cl)c1ccc(OC(F)F)c2c1OC1(CCS(=O)(=O)CC1)O2 , tested on PDE4D1 (Homo sapiens, UniProt Q08499), has a reported pIC50 of 8.06

###

molecular target: PDE4D7 (Homo sapiens, UniProt Q08499)
Sequence (Q08499 1-748 isoform Q08499-11): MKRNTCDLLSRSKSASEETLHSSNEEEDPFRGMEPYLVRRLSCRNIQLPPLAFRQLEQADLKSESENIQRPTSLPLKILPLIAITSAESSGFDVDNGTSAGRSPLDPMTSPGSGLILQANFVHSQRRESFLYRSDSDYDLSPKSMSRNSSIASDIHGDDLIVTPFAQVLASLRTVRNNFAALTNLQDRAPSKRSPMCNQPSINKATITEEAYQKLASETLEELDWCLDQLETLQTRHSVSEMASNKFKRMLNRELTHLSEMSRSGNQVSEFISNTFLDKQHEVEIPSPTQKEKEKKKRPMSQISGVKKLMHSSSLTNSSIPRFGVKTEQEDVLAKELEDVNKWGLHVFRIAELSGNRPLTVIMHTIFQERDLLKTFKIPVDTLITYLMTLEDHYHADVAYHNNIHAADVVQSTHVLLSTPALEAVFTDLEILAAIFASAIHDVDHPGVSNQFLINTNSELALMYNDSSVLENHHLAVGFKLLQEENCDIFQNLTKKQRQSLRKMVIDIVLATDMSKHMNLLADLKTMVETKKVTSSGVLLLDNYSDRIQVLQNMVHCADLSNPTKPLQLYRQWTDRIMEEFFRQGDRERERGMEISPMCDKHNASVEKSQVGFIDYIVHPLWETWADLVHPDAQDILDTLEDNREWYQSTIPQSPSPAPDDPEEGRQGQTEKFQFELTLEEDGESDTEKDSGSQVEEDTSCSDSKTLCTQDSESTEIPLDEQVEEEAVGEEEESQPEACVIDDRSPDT
reported_property: IC50

Entry O=C(Cc1c(Cl)c[n+]([O-])cc1Cl)c1ccc(OC(F)F)c2c1OC1(CCS(=O)(=O)CC1)O2 [Compound (I)] , tested on PDE4D7 (Homo sapiens, UniProt Q08499), has a reported IC50 of 2.94 nM

###

molecular target: PDE4B1 (Homo sapiens)
Sequence (Q07343 whole entry): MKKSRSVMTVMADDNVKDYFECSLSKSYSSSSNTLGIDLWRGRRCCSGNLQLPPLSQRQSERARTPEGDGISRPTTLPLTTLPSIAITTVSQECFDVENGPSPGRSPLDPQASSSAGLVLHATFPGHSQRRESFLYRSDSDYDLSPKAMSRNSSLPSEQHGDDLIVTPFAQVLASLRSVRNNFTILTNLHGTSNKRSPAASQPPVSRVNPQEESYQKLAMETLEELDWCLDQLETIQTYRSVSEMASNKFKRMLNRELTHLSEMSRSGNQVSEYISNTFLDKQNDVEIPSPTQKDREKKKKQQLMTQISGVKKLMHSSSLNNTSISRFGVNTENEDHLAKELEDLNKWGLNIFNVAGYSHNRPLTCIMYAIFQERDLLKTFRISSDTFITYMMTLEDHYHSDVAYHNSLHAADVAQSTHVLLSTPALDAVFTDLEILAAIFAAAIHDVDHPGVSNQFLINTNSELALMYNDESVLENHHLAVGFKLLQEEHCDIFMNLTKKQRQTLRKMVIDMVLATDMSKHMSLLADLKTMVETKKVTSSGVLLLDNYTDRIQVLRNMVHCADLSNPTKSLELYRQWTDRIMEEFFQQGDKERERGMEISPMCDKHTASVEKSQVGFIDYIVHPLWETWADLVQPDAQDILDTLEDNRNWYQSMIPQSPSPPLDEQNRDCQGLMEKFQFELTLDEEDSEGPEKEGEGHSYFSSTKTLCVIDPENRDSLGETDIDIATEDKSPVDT
reported_property: IC50
Include the unit right after the number.

The molecule identified as O=C(Cc1c(Cl)c[n+]([O-])cc1Cl)c1ccc(OC(F)F)c2c1OC1(CCS(=O)(=O)CC1)O2 registered its IC50 at 0.0157 µM

###

molecular target: PDE4A10 (Homo sapiens, UniProt P27815)
Sequence (P27815 1-825 isoform P27815-6): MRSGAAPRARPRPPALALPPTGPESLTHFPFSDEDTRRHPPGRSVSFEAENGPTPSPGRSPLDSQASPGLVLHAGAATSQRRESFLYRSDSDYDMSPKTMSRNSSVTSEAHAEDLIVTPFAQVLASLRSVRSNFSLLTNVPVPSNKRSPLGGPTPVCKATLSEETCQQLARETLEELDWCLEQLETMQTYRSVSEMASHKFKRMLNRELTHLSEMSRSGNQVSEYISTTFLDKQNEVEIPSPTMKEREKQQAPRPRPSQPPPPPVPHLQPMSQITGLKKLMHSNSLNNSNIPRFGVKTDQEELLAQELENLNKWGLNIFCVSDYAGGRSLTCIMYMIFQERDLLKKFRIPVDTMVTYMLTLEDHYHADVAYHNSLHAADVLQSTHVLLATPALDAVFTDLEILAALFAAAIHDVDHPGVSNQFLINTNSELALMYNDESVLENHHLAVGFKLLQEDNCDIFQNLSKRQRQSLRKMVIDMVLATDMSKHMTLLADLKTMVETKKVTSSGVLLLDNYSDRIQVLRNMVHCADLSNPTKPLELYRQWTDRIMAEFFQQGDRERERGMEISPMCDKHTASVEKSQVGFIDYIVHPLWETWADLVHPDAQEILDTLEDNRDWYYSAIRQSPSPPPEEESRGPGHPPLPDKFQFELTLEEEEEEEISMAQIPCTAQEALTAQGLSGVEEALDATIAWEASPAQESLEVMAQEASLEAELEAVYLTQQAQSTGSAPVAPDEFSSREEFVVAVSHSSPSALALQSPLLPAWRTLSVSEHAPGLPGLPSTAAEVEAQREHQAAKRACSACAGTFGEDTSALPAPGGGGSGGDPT
reported_property: IC50 (nM)
Answers are plain numbers, in nM.

The compound identified as O=C(Cc1c(Cl)c[n+]([O-])cc1Cl)c1ccc(OC(F)F)c2c1OC1(CCS(=O)(=O)CC1)O2 registered its IC50 at 52.3
